From: ChEMBL document CHEMBL5608141

system: Colon cancer organoid; assay: Identification of compartment-specific drug sensitivities in O20 CRC organoid-stroma F20 CAF co-cultures. Organoid is transduced with Lucferase2-P2A-EGFP lentivirus, fibroblast with Renilla-dsRed lentivirus. Dual-Glo Luciferase assay is used to report viability data.; assay type: functional, Homo sapiens; parameters: dose or concentration left out as unconfirmed; details: Transduced with Lucferase2-P2A-EGFP lentivirus

molecule	readout unit	Cell Viability
CCC(=O)Nc1cccc(Oc2nc(Nc3ccc(N4CCN(C)CC4)cc3OC)ncc2Cl)c1	%	125.304
CNCc1ccccc1-c1csc([C@@H](C)Nc2nc(C)nc3cc(OC)c(OC)cc23)c1 [BAY-293]	%	78.2703
Cc1c(C(=O)Nc2ccc(Oc3ccnc4[nH]cc(-c5ccccc5)c34)c(F)c2)c(=O)n(-c2ccc(F)cc2)n1C	%	225.47
CN1CCN(C(=O)C(C)(C)c2ccc(C(=O)Nc3cn4cc(-c5cc(C(C)(C)C)cc(C(C)(C)C)c5)ccc4n3)cc2)CC1 [T3-CLK-N]	%	83.0148
Cc1cc(C)cc([C@H]2c3cc(C)ccc3NC(=O)CN2C(=O)c2ccc(Br)s2)c1	%	134.675
CC1=C(C#N)C(c2ccc3c(c2)c(NC(=O)c2ccccc2C)nn3C)C(C#N)=C(C)N1 [BAY-974]	%	105.235
CCC(=N\O)/C(C)=C/c1ccc(F)c(C)c1 [A-226]	%	93.31
CN(C)C(=O)/C(C#N)=C/c1ccc(-c2nc3cnc4c(ccn4C)c3n2C2CCCCC2)o1	%	49.7098
